Target Desc: T1, PrgE WT (Enterococcus faecalis (plasmid pCF10), UniProt D1LHE9 1-144)
T1 sequence: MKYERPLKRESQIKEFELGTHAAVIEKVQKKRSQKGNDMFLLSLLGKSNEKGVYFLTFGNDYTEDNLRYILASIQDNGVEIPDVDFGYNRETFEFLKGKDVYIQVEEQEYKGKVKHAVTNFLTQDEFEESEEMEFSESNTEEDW
Protocol Details: fluorescence anisotropy; 50 mM NaCl; quadratic fit (Hill coefficient ca 1.5 in Hill fit); 20 mM Hepes pH 7.5, 50 or 100 mM NaCl, 10 nM FITC-DNA, 0-20 uM protein, 30 min at RT
Reported Conditions: protein: recombinant; tags: C-terminal 10xHis removed with 3C (PreScission) protease; chain copies: 3; label: 5' FITC; single strand
Measured Property: Kd (nM)
Your answer is read as nM, so omit the unit and give the number.

Fill blank: measured Kd of the binder 60-mer ssDNA (ssDNA) DNA: CAGTGACAGTCTCCACGGTGAAGCAGTCGTACCTCTTGACGCATGAATAGATATATGTTA is ____.
330
